The reported numbers originate from ChEMBL document CHEMBL5724796.

Entries and their measured ΔTm follow.
# study_system: Peregrin (Homo sapiens) (UniProt P55201)
# Sequence (P55201 whole entry): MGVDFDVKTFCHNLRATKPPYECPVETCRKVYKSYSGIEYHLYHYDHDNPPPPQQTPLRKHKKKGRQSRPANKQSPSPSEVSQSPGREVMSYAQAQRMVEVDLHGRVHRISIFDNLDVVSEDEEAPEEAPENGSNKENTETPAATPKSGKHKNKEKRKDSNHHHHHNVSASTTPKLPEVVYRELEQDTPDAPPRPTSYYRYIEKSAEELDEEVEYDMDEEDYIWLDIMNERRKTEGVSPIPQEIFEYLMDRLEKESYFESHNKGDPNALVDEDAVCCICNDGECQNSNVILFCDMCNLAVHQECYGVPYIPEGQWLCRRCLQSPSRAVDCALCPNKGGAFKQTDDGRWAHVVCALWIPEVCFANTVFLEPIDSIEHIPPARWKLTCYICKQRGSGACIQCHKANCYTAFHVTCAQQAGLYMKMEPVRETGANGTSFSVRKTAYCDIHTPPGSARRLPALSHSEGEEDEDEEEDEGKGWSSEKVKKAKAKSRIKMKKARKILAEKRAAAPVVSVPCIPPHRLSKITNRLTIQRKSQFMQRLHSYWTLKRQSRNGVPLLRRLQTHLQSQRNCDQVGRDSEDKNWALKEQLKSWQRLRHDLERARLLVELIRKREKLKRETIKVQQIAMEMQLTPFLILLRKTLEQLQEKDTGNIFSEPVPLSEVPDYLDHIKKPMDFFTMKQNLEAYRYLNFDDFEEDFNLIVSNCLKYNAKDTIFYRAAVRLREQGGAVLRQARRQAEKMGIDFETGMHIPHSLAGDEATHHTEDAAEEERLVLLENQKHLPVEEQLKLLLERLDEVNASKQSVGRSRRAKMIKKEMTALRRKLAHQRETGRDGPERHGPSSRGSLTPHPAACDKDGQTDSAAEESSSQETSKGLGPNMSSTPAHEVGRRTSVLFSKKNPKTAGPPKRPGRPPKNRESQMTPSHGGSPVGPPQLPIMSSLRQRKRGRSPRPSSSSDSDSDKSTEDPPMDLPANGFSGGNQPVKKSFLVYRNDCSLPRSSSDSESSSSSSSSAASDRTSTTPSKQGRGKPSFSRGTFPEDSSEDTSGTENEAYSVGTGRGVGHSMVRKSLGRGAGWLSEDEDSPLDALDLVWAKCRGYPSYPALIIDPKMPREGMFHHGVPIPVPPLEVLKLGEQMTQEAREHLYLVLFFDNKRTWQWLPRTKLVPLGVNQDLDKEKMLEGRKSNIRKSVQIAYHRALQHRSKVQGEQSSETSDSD
# assay_setup: Compound concentration 20.0 uM

compound	ΔTm / °C
O=C1Cc2cc(C(=O)N[C@@H]3C[C@H]4CC[C@@H](C3)N4S(=O)(=O)CC3CCN(CCCC(F)(F)F)CC3)c(Cl)cc2N1	-0.66
O=C(c1cc(O)c(O)c([N+](=O)[O-])c1)c1ccccc1F	1.4
COc1ccc(C(=O)N[C@H](C(=O)N2CCC[C@H]2C(=O)N[C@H](C(=O)C(F)(F)F)C(C)C)C(C)C)cc1	0.8
O=C(c1ccc2[nH]ccc2c1)N1CCN(S(=O)(=O)c2ccc3[nH]c(=O)oc3c2)CC1	-0.16
CS(=O)(=O)N1CCN(C(=O)c2cnc3ccc(Cl)cc3c2-c2ccc(C3(C#N)CC3)cc2)CC1	1.84
C[C@H](Nc1nc2c(cnn2C2CCCC2)c(=O)[nH]1)c1ccc(Cl)cc1	1.99
CC(=O)N[C@@H](CCCCNC(=O)CSCCNC(=O)CCNC(=O)[C@H](O)C(C)(C)COP(=O)(O)OP(=O)(O)OC[C@H]1O[C@@H](n2cnc3c(N)ncnc32)[C@H](O)[C@@H]1OP(=O)(O)O)C(N)=O	1.95
COC[C@H](NC(=O)c1ccn(S(C)(=O)=O)c1)C(=O)Nc1nc(-c2cccc(-c3ccn(C)n3)c2)cs1	-0.52
CC#CCn1c(N2CCC[C@@H](N)C2)nc2c1c(=O)n(Cc1nc(C)c3ccccc3n1)c(=O)n2C	0.04
CCCCCCCCCCCCC/C=C/[C@@H](O)[C@H](CO)NC(=O)CCl	0.52
CCCCNc1cc(C(=O)O)cc(S(N)(=O)=O)c1Oc1ccccc1	0.81
CCOc1ccc2nc(-c3cccc(OCC(=O)NC(C)C)c3)nc(Nc3ccc(-c4cn[nH]c4)cc3)c2c1	2.82
CCCC(NC(=O)C(CC(C)C)NC(=O)OCc1ccccc1)C(=O)C(=O)NCc1ccccn1 (racemic)	-1.7
Cc1sc2c(c1C)C(c1ccc(Cl)cc1)=N[C@@H](CC(=O)OC(C)(C)C)c1nnc(C)n1-2	-1.61
COc1ccc(C(CN(C)C)C2(O)CCCCC2)cc1 (centres undefined)	-0.6
COCCOc1cc(CC2CCN(CCc3ccc4c(c3)C(=O)CCO4)CC2)ccc1Br	1.8
OC[C@H]1O[C@@H](c2ccc(F)c(Cc3cc4ccccc4s3)c2)[C@H](O)[C@@H](O)[C@@H]1O	1.12
N#Cc1ccc(N2N=C3c4ccc(C(=O)O)cc4CC[C@@H]3[C@@H]2C2CCCC2)cc1Cl	-8.37
CCS(=O)(=O)Cc1cnc(Oc2ccc(F)cc2F)c(-c2cc(C)c3c(=O)[nH]ccn23)c1	2.87
CCOC(=O)NCCCC(=O)NCCc1ccccc1	-0.92
CCCCCCCCCCCCCC(=S)NCCCC[C@H](NC(=O)OCc1ccccc1)C(=O)Nc1ccccc1	3.33
O=C(NCC1CCOCC1)c1n[nH]cc1NC(=O)c1c(F)cccc1F	-1.34
O=C(O)Cc1ccc(Cc2cc(-c3cccc(Cl)c3)nc(C(F)(F)F)c2)cc1	-0.4
CCN(C(=O)c1cc(F)ccc1Oc1cncnc1N1CC2(CCN(C[C@H]3CC[C@H](NS(=O)(=O)CC)CC3)CC2)C1)C(C)C	0.45
Cc1ncccc1-c1cnc(NCc2c(F)ccc3c2CCO3)n2cnnc12	-0.54
Cc1c(CN2CCC(Nc3ncnc4sc(CC(F)(F)F)cc34)CC2)ccc2[nH]c(C#N)cc12	-2.53
O=C(CN1CCN(C(=O)c2ccco2)CC1)Nc1cc(C(F)(F)F)ccc1Cl	-0.04
CC(C)[C@H](NC(=O)OCc1ccccc1)C(=O)NC(CC(=O)O)C(=O)CF (some centres undefined)	-1.71
CN1CCN(c2ccc3nc(-c4c(N)c5c(F)cccc5[nH]c4=O)[nH]c3c2)CC1	-0.73

* * *

# study_system: Peregrin (Homo sapiens)
# assay_setup: Compound concentration 20.0 uM
Attribute: ΔTm
value_type: ΔTm (°C)

> print(dat)
                                  smiles.str             study.system  unit.annotation  readout.value
 1  CN(C)CCCCC(=O)Nc1ccc(NC(=S)NC(=O)c2ccc(C(C)(C)C)cc2)cc1  Peregrin (Homo sapiens)               °C          -0.35
 2         Cc1ccc(C)c(-n2sc3cc(F)ccc3c2=O)c1  Peregrin (Homo sapiens)               °C          -11.8
 3  CCCn1/c(=N/C(=O)c2cccc(C(N)=O)c2)[nH]c2ccccc21  Peregrin (Homo sapiens)               °C          -1.26
 4  CN(Cc1cccc(-c2ccncc2)c1)C(=O)Oc1ccc(-c2ccc(C(N)=O)cc2)cc1  Peregrin (Homo sapiens)               °C           2.09
 5  O=S(=O)(O)c1ccc2cc(/N=N/c3cc(S(=O)(=O)O)c4cccnc4c3O)ccc2c1  Peregrin (Homo sapiens)               °C          -0.89
 6  N[C@H]1CC[C@H](N[C@@H]2C[C@H]2c2ccccc2)CC1  Peregrin (Homo sapiens)               °C           1.23
 7  Cc1cc(S(C)(=O)=O)c(S(C)(=O)=O)cc1C(=O)NC(=N)N  Peregrin (Homo sapiens)               °C           2.74
 8  COC(=O)[C@H]1[C@H]2C[C@@H]3c4[nH]c5cc(OC)ccc5c4CCN3C[C@H]2C[C@@H](OC(=O)c2cc(OC)c(OC)c(OC)c2)[C@@H]1OC  Peregrin (Homo sapiens)               °C           0.08
 9  CC(C)(C)OC(=O)Nc1ccc(-c2cc(C(=O)NCCCCCCC(=O)NO)no2)cc1  Peregrin (Homo sapiens)               °C              0
10  Nc1nc2cc(CC[C@H]3C[C@@H](n4ccc5c(N)ncnc54)[C@H](O)[C@@H]3O)ccc2cc1Br  Peregrin (Homo sapiens)               °C          -0.14
11  O=C(COc1ccc(-c2oc3cc(O)c(C(=O)O)cc3c2C#Cc2cccc(Cl)c2)cc1)NC1CC1  Peregrin (Homo sapiens)               °C          -1.44
12  CN(CCOc1ccc(-c2ccc3c(c2)OCO3)cc1C(C)(C)C)CC(=O)O  Peregrin (Homo sapiens)               °C           2.31

* * *

# Lookup of reported ΔTm keyed by entry
# study_system: UniProtKB P55201
# assay_setup: Compound concentration 20.0 uM
value_type: ΔTm (°C)

> print(dat)
                                   molecule  value.type  unit.annotation  readout.value
1  Cn1c(=O)c2c(nc(N3CCNCC3)n2Cc2nnc(-c3ccc(Cl)c(Cl)c3)o2)n(C)c1=O         ΔTm               °C          -0.83
2  CCN1C(C)(C)CC(Oc2ccc(C(=O)Nc3ccc(NC(=O)Nc4cc(C(C)(C)C)on4)cc3)nc2)CC1(C)C         ΔTm               °C          -1.03
3  COC1CCN(C(=O)c2cc(Cc3n[nH]c(=O)c4ccccc34)ccc2F)CC1         ΔTm               °C           1.51
4  N#Cc1nc2c(nc1C#N)-c1ccccc1C2=NOCc1ccccc1         ΔTm               °C           5.25
5  CNCCC(Oc1ccccc1OC)c1ccccc1 (configuration not stated)         ΔTm               °C           1.17
6  Cc1ccc2[nH]c3c(c2c1)CCCC3C(N)=O (configuration not stated)         ΔTm               °C           0.79
7  CC(=O)N[C@@H](Cc1ccc(O)cc1)C(=O)N[C@H](C(=O)N[C@@H](C)C(=O)N[C@@H](CC(=O)O)C(=O)COC(=O)c1c(C)cccc1C)C(C)C         ΔTm               °C          -1.58

* * *

# study_system: Fibroblast growth factor receptor 2 (Homo sapiens) (UniProt P21802)
# Sequence (P21802 22-821 limits assumed): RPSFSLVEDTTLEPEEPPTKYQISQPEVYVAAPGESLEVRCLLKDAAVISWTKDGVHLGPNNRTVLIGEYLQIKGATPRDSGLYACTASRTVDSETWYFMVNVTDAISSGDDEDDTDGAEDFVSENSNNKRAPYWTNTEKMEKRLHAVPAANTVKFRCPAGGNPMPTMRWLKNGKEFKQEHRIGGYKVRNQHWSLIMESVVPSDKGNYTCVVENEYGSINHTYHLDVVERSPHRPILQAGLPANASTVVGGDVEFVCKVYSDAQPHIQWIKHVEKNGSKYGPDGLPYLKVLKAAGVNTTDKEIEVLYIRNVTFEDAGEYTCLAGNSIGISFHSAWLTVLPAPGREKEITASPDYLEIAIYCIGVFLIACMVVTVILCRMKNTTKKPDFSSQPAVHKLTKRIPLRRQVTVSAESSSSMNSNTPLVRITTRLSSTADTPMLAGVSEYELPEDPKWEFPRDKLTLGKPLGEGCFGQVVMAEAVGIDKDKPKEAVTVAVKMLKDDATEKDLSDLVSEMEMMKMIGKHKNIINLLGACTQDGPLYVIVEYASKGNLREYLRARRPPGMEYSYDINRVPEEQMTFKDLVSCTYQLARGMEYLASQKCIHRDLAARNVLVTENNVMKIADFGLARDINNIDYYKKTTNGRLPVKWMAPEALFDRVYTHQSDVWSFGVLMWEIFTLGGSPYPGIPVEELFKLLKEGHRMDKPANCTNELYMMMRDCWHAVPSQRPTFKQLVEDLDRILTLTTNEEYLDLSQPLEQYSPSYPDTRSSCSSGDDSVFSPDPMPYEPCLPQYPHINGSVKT
# assay_setup: Compound concentration 20.0 uM
# Description: Thermal Shift Assay. Domain: start/stop: T457-E768
Residues, ends and D or L forms follow the SMILES beside them.
Would you mind labelling by ΔTm? At or over 0.03 °C is TRUE, under is FALSE.

> print(dat)
                                   compound                              study.system  class.label
1  CSCC[C@H](NC(=O)[C@H](CC(=O)O)NC(C)=O)C(=O)N[C@@H](CCC(N)=O)C(=O)N[C@H](C=O)CC(=O)O (Ac-DMQD-aldehyde)  Fibroblast growth factor receptor 2 (Homo sapiens) (UniProt P21802)         TRUE
2            CC(C)C(=O)c1c(C(C)C)nn2ccccc12  Fibroblast growth factor receptor 2 (Homo sapiens) (UniProt P21802)        FALSE
3  CCNC(=O)c1noc(-c2cc(C(C)C)c(O)cc2O)c1-c1ccc(CN2CCOCC2)cc1  Fibroblast growth factor receptor 2 (Homo sapiens) (UniProt P21802)         TRUE
4  Cc1ccc(N2C(=O)/C(=C/C=C/c3ccco3)C(=O)NC2=S)cc1Cl  Fibroblast growth factor receptor 2 (Homo sapiens) (UniProt P21802)        FALSE
5            CC(=O)NCC(=O)N1CCC[C@@H]1B(O)O  Fibroblast growth factor receptor 2 (Homo sapiens) (UniProt P21802)         TRUE
6  CC(C)(C)OC(=O)Nc1ccc(-c2cc(C(=O)NCCCCCCC(=O)NO)no2)cc1  Fibroblast growth factor receptor 2 (Homo sapiens) (UniProt P21802)        FALSE
7  CC(=O)N1CCC(c2ccc(C(=O)NC(=N)N)cc2C(F)(F)F)CC1  Fibroblast growth factor receptor 2 (Homo sapiens) (UniProt P21802)         TRUE
8  C[C@@H](Oc1ccc(CNC(=O)c2cccnc2Oc2ccc3c(c2)OCO3)c(F)c1)C(=O)O  Fibroblast growth factor receptor 2 (Homo sapiens) (UniProt P21802)         TRUE
9   CCOCC1(COCC)CCC(c2n[nH]cc2CN(C)CCNC)CC1  Fibroblast growth factor receptor 2 (Homo sapiens) (UniProt P21802)        FALSE
